assay: Pharmacokinetic evaluation in ICR male mice; format: in vivo; conditions: mouse, plasma, IV 2 mg/kg
Reported Endpoint: MRT inf (h)
// units = h; emit number, no label

Task item: What value of MRT inf has been recorded for this entry: "CNC(=O)c1cc2c(c(F)c1-c1c(Cl)c(F)cc3c1C[C@@](CN[C@H]1CC[C@H](C(=O)N4CCC(CC5CCN(C(=O)COc6ccc(N7CCC(=O)NC7=O)c(C)c6)CC5)CC4)CC1)(c1ccccc1)O3)[C@@H](O)[C@@H](C)C2"
Reply: 1.4

* * *

assay: Pharmacokinetic evaluation in ICR male mice; type: in vivo; settings: mouse, plasma, IV 2 mg/kg
Reported Endpoint: AUC(0-inf) (ng·h/mL)
// units = ng·h/mL; emit number, no label

Task item: What value of AUC(0-inf) has been recorded for this entry: "CNC(=O)c1cc2c(c(F)c1-c1c(Cl)c(F)cc3c1C[C@@](CN[C@H]1CC[C@H](C(=O)N4CCC(CC5CCN(C(=O)COc6ccc(N7CCC(=O)NC7=O)c(C)c6)CC5)CC4)CC1)(c1ccccc1)O3)[C@@H](O)[C@@H](C)C2"
Reply: 1060

* * *

experiment: Pharmacokinetic evaluation in ICR male mice; type: in vivo; conditions: mouse, plasma, IV 2 mg/kg
Reported Endpoint: Tmax (h)
// units = h; emit number, no label

Task item: What value of Tmax has been recorded for this entry: CNC(=O)c1cc2c(c(F)c1-c1c(Cl)c(F)cc3c1C[C@@](CN[C@H]1CC[C@H](C(=O)N4CCC(CC5CCN(C(=O)COc6ccc(N7CCC(=O)NC7=O)c(C)c6)CC5)CC4)CC1)(c1ccccc1)O3)[C@@H](O)[C@@H](C)C2 [KG-FP-003]
Reply: 0

* * *

test: Pharmacokinetic evaluation in ICR male mice; type: in vivo; conditions: mouse, plasma, IP 5 mg/kg
Reported Endpoint: MRT inf (h)
// units = h; emit number, no label

Task item: What value of MRT inf has been recorded for this entry: CNC(=O)c1cc2c(c(F)c1-c1c(Cl)c(F)cc3c1C[C@@](CN[C@H]1CC[C@H](C(=O)N4CCC(CC5CCN(C(=O)COc6ccc(N7CCC(=O)NC7=O)c(C)c6)CC5)CC4)CC1)(c1ccccc1)O3)[C@@H](O)[C@@H](C)C2 [KG-FP-003]
Reply: 3.13

* * *

target: CRBN-DDB1 (Homo sapiens); assay: CRBN binding assay, biochemical (HTRF); conditions: recombinant CRBN-DDB1, 1 h, read-out: Biochemical CRBN Binary Binding IC50 (nM ± SD)
Sequence (Q96SW2 whole entry): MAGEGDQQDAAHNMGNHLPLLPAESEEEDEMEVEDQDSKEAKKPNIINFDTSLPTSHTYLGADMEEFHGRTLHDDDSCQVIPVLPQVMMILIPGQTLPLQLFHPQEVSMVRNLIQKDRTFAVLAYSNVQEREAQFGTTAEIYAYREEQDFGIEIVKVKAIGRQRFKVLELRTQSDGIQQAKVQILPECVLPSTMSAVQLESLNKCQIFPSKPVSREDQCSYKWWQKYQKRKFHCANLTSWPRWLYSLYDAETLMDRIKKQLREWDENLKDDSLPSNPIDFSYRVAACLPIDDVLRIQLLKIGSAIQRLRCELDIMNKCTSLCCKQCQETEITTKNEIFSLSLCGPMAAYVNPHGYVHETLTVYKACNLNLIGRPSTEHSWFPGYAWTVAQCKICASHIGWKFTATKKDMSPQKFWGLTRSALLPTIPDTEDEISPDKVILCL
Reported Endpoint: IC50 (nM)
// units = nM; emit number, no label

Task item: What value of IC50 has been recorded for this entry: "CNC(=O)c1cc2c(c(F)c1-c1c(Cl)c(F)cc3c1C[C@@](CN[C@H]1CC[C@H](C(=O)NCCCCC(=O)Nc4ccc(C)c(N5CCC(=O)NC5=O)c4)CC1)(c1ccccc1)O3)[C@@H](O)[C@@H](C)C2"
Reply: 474

Task item: Thanks! And CNC(=O)c1cc2c(c(F)c1-c1c(Cl)c(F)cc3c1C[C@@](CNC(=O)CCCCC(=O)Nc1ccc4c(c1)C(=O)N(C1CCC(=O)NC1=O)C4=O)(c1ccccc1)O3)[C@@H](O)[C@@H](C)C2 (stereo partly shown) ?
Reply: 126

Task item: Thanks! And "CNC(=O)c1cc2c(c(F)c1-c1c(Cl)c(F)cc3c1C[C@@](CN[C@H]1CC[C@H](C(=O)N4CCC(CC5CCN(C(=O)COc6ccc(N7CCC(=O)NC7=O)c(C)c6)CC5)CC4)CC1)(c1ccccc1)O3)[C@@H](O)[C@@H](C)C2" ?
Reply: 591

Task item: Thanks! And CNC(=O)c1cc2c(c(F)c1-c1c(Cl)c(F)cc3c1C[C@@](CN[C@H]1CC[C@H](C(=O)N4CCC(CC5CCN(C(=O)COc6ccc7c(c6)C(=O)N(C6CCC(=O)NC6=O)C7=O)CC5)CC4)CC1)(c1ccccc1)O3)[C@@H](O)[C@@H](C)C2 (stereo partly shown) ?
Reply: 152

Ref: paper PMC12752627
